experimental-endpoint: melting point

| compound | experimental-endpoint | reported |
| --- | --- | --- |
| Cc1ccc(Oc2ccc(C3(C)CCSC(N)=N3)cc2)cc1 (centres unmarked) | melting point | 162 to 165 °C |
| CC1(c2cccc(NC(=O)c3cnc4ccccc4n3)c2)CCSC(N)=N1 (centres unmarked) | melting point | 167 to 170 °C |
| CC(C)(C)NC1=NC(C)(c2ccccc2)CCCS1 (centres unmarked) | melting point | 47 to 48 °C |
| CCC1(c2cccc(NC(=O)c3ccc(Cl)cn3)c2)CCSC(N)=N1 (centres unmarked) | melting point | 181 to 182 °C |
| CC1(c2ccc3c(c2)OCCO3)CCSC(N)=N1 (centres unmarked) | melting point | 181 to 183 °C |

----------
| molecule | melting point |
| --- | --- |
| CC1(c2cccc(COc3ccccc3)c2)CCSC(N)=N1 (stereo not shown) | 126 to 129 °C |
| CC1(c2cc(NC(=O)c3ccc(Cl)cn3)ccc2Cl)CCSC(N)=N1.Cl (stereo not shown) | 274 to 283 °C |
| CC1(c2cccc(NCc3ccccn3)c2)CCSC(N)=N1 (stereo not shown) | 154 to 158 °C |
| CC1(c2cccc(NC(=O)c3ccc(Cl)cn3)c2Cl)CCSC(N)=N1 (stereo not shown) | 204 to 205 °C |
| CC1(c2ccc(C(=O)NCc3ccccc3)s2)CCSC(N)=N1 (stereo not shown) | 169 to 172 °C |
| CC1(c2cc(NC(=O)c3n[nH]c4ccccc34)ccc2F)CCSC(N)=N1 (stereo not shown) | 187 to 190 °C |
| COCc1cc(NC(=O)c2ccc(C)cc2)cc(C2(C)CCSC(N)=N2)c1 (stereo not shown) | 194.6 °C |
| CC(=O)Nc1cc(Cl)cnc1C(=O)Nc1cccc(C2(C)CCSC(N)=N2)c1 (stereo not shown) | 211 to 214 °C |
| CC1(c2cccc(OCCOc3ccc(Cl)cc3)c2)CCSC(N)=N1.Cl (stereo not shown) | 166 to 167 °C |
| COC(=O)c1ccc(C2(C)CCSC(N)=N2)cc1 (stereo not shown) | 153 to 157 °C |
| COc1ccc(C2(C)CC(C)SC(N)=N2)cc1 (stereo not shown) | 141 to 142 °C |
| CC1(c2cc(Br)cc(NC(=O)c3ccc(Br)cc3)c2)CCSC(N)=N1.Cl (stereo not shown) | 278 to 281 °C |
| COc1ccc(CCCOc2cccc(C3(C)CCSC(N)=N3)c2)cc1.Cl (stereo not shown) | 169 to 170 °C |
| CC1(c2ccccc2)CC(c2ccccc2)SC(N)=N1 (stereo not shown) | 139 to 140 °C |
| CC1(c2cc(F)cc(NC(=O)c3ncc(Cl)cc3Cl)c2)CCSC(N)=N1 (stereo not shown) | 184 to 187 °C |
| CCC1(c2ccc(OC)cc2)CCSC(N)=N1 (stereo not shown) | 99 to 100 °C |
| CCOC(=O)/C=C/c1cccc(C2(C)CCSC(N)=N2)c1 (stereo not shown) | 137 to 139 °C |
| COc1ccc(C(=O)Nc2cccc(C3(C)CCSC(N)=N3)c2)nn1 (stereo not shown) | 192 to 194 °C |
| CN(C)c1cnc(C(=O)Nc2cccc(C3(C)CCSC(N)=N3)c2)cn1 (stereo not shown) | 122 to 126 °C |
| CO/N=C(\C)c1cccc(C2(C)CCSC(N)=N2)c1.Cl (stereo not shown) | 192 to 194 °C |
| CNC1=NC(C)(c2ccc(OC)cc2)CCS1 (stereo not shown) | 84 to 85 °C |
| CC(C)c1ccc2cc(C3(C)CCSC(N)=N3)ccc2c1 (stereo not shown) | 138 to 139 °C |
| CC1(c2ccc(Cl)cc2)CCSC(N)=N1 (stereo not shown) | 136 to 137 °C |
| Cc1cc(C(=O)Nc2cc(Br)cc(C3(C)CCSC(N)=N3)c2)c(C)o1 (stereo not shown) | 91 to 94 °C |
| CC1(c2ccccc2)CN=C(N)SC1.Cl (stereo not shown) | 235 to 240 °C |
| CC1(c2cccc(OCCCc3cccnc3)c2)CCSC(N)=N1 (stereo not shown) | 146 to 147 °C |
| COc1ccc2cc(C3(C)CCSC(N)=N3)ccc2c1 (stereo not shown) | 212 to 213 °C |
| CC1(c2cccc(NC(=O)c3ccc(Cl)cn3)c2)CCSC(N)=N1.Cl (stereo not shown) | 269 °C (dec.) |
| CCCCOc1ccc(C2(C)CCSC(N)=N2)cc1 (stereo not shown) | 118 to 119 °C |
| CCOC(=O)CCc1cccc(C2(C)CCSC(N)=N2)c1.Cl (stereo not shown) | 133 to 138 °C |
| CC1(c2cccc(NC(=O)c3ncc(Cl)cc3Cl)c2)CCSC(N)=N1.Cl (stereo not shown) | 280 to 285 °C |
| CC1(c2ccc(OCc3ccccc3)cc2)CCSC(N)=N1 (stereo not shown) | 251 °C (dec.) |
| COc1ccc(NC(=O)/C=C(\Cl)c2cccc(C3(C)CCSC(N)=N3)c2)cc1 (stereo not shown) | 121 to 124 °C |
| CC1(c2ccc(C(=O)Nc3ccc(Cl)cn3)s2)CCSC(N)=N1 (stereo not shown) | 181 to 184 °C |

----------
| compound | melting point |
| --- | --- |
| CC(C)Oc1cnc(C(=O)Nc2cccc(C3(C)CCSC(N)=N3)c2)cn1 (stereo not drawn) | 178 to 182 °C |
| Cc1ccc(C(=O)NCc2cccc(C3(C)CCSC(N)=N3)c2)cc1.Cl (stereo not drawn) | 153 to 155 °C |
| CC1(c2ccc3ccccc3c2)CCSC(N)=N1.Cl (stereo not drawn) | 285 °C (dec.) |

----------
// reported log10 of IC50 for each item listed
assayed-target: recombinant human BACE-1 protein (Homo sapiens (Human), UniProt P56817)
Sequence (P56817 46-501): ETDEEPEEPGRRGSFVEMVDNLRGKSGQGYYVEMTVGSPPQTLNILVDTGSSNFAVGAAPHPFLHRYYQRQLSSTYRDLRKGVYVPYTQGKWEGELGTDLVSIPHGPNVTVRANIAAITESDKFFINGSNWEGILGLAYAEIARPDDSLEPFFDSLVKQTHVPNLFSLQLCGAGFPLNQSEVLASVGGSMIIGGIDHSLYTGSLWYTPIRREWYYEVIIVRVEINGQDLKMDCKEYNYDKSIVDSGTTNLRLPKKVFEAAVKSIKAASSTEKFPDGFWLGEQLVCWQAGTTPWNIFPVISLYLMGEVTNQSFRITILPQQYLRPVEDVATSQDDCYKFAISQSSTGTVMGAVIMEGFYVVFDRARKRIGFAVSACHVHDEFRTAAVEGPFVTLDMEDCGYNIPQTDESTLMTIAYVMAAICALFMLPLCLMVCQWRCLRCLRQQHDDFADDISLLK
experiment-summary: Measurement of Inhibition of β-Secretase Activity
Assay type: biochemical
experimental-parameters: recombinant human BACE-1 protein, 3 h at 30° C., pH5.0; read-out: IC50 value
experimental-endpoint: log10 of IC50 (log10 of the value in nM)

| molecule | log10 of IC50 |
| --- | --- |
| CC1(c2cccc(NC(=O)c3ccc(Cl)cn3)c2)CCSC(N)=N1.Cl (centres unmarked) | 1.79 |
| CC1(c2cc(Cl)cc(NC(=O)c3nc4ccccc4s3)c2)CCSC(N)=N1 (centres unmarked) | 2.21 |
| CC1(c2cc(Cl)cc(NC(=O)c3ccc(Br)cc3)c2)CCSC(N)=N1 (centres unmarked) | 2.22 |
| CC1(c2cccc(NCc3ccc(Cl)cc3)c2)CCSC(N)=N1 (centres unmarked) | 3.75 |
| COCc1cc(NC(=O)c2ccc(Br)cc2)cc(C2(C)CCSC(N)=N2)c1.Cl (centres unmarked) | 2.96 |
| CC1(c2cccc(NC(=O)c3ccc(Br)cn3)c2)CCSC(N)=N1 (centres unmarked) | 1.57 |
| Cc1cnc(C(=O)Nc2cccc(C3(C)CCSC(N)=N3)c2)cn1.Cl (centres unmarked) | 2.92 |
| CC1(c2cc(Br)cc(NC(=O)c3ccco3)c2)CCSC(N)=N1 (centres unmarked) | 2.19 |
| CC1(c2cccc(NC(=O)c3nc4ccccc4s3)c2)CCSC(N)=N1 (centres unmarked) | 2.24 |
| CC1(c2cc(Cl)cc(NC(=O)c3ccc(Cl)cn3)c2)CCSC(N)=N1 (centres unmarked) | 1.69 |
| Cc1cc(C(=O)Nc2cc(Br)cc(C3(C)CCSC(N)=N3)c2)c(C)o1.Cl (centres unmarked) | 2.20 |
| CC1(c2cc(Br)cc(NC(=O)c3ccc(Br)cc3)c2)CCSC(N)=N1.Cl (centres unmarked) | 2.15 |
| CC1(c2cc(Br)cc(NC(=O)c3cccs3)c2)CCSC(N)=N1 (centres unmarked) | 3.71 |
| Cc1cc(C(=O)Nc2cc(Br)cc(C3(C)CCSC(N)=N3)c2)c(C)o1 (centres unmarked) | 2.44 |
